# ASSAY TARGET: LasB (elastase) (Pseudomonas aeruginosa, UniProt P14756)
# Sequence (P14756 198-498): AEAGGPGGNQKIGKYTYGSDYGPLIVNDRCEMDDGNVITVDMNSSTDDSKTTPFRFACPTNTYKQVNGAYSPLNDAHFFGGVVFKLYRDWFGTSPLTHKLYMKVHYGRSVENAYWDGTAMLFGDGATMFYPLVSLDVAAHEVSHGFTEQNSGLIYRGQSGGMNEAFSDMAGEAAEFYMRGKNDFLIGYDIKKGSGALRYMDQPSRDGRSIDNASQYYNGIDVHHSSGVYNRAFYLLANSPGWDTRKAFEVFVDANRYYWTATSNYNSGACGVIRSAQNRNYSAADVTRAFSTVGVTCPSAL
# TEST NAME: BODIPY-FL casein fluorescence protease assay with purified LasB
MEASURE: Ki (µM)
The figure you give is taken to be in µM; do not add the unit.

# lookup: Ki of CCCCCCC[C@@H]1C[C@H]1CCC(=O)O [compound 4, lyngbyoic acid]
5.4
